- ASSAYED SYSTEM: T1, 6x His-tagged ENL YEATS domain (human, UniProt Q03111 1-138)
- T1 sequence (looked up): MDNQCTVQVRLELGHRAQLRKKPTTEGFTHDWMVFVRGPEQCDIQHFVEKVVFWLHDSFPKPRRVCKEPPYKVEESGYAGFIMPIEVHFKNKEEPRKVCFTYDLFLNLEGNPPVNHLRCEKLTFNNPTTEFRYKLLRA
- PROTOCOL: BLI
No end group written: not given here. *: point of attachment. Oxazole(5-CO) = O=C(c1cnco1)*; Crotonyl(E) = C/C=C/C(=O)*; 2Furoyl = O=C(c1ccco1)*; Butyryl = CCCC(=O)*
I'd be grateful if you could share measured log10 of Kd for these entries.
In plain terms, each number is the log10 of measured Kd in nM.

Prompt line: Quick one: log10 of Kd of YDVYCYK(Butyryl)-NH2 [ENL-S1] ?
Response line: 1.56

Prompt line: Quick one: log10 of Kd of WWIIEK(Butyryl)G-NH2 [ENL-S2] ?
Response line: 2.94

Prompt line: Quick one: log10 of Kd of YDVYCYK(2Furoyl)-NH2 [ENL-S1f] ?
Response line: 1.01

Prompt line: Quick one: log10 of Kd of YDVYCYK(Crotonyl(E))-NH2 [ENL-S1c] ?
Response line: 1.21

Prompt line: Quick one: log10 of Kd of YDVYCYK(Oxazole(5-CO))-NH2 [ENL-S1o] ?
Response line: 0.30
